Assay: physchem
Settings: pH 7.4, aqueous buffer, kinetic from dmso stock, Solubility (pH 7.4)
parameter_measured: solubility at 24 h (µg/mL)

Recorded solubility at 24 h, per entry:
CCNC(=O)Nc1nc2cc(-c3cnc(N4CCCCC4(C)C(=O)O)nc3)cc(-c3ccccn3)c2s1 (stereo not drawn): 6.25
CCNC(=O)Nc1nc2cc(-c3cnc(N4CCC(O)C(C)(C(=O)OC)C4)nc3)cc(-c3ccccn3)c2s1 (stereo not drawn): 12.5
CCNC(=O)Nc1nc2cc(-c3cnc(N4CCC(N)(C(=O)OC)CC4)nc3)cc(-c3ccccn3)c2s1: 25
CCNC(=O)Nc1nc2cc(-c3cnc(N4CCC(OC)(C(=O)OC)CC4)nc3)cc(-c3ccccn3)c2s1: 25

A = CCNC(=O)Nc1nc2cc(-c3cnc(N4CCC(N)(C(=O)O)CC4)nc3)cc(-c3ccccn3)c2s1
B = CCCC1(C(=O)O)CCN(c2ncc(-c3cc(-c4nccc(OC)n4)c4sc(NC(=O)NCC)nc4c3)cn2)CC1
C = CCNC(=O)Nc1nc2cc(-c3csc(N4CCC(CC)(C(=O)O)CC4)n3)cc(-c3ccccn3)c2s1
D = CCNC(=O)Nc1nc2cc(-c3cnc(N4CCC(CC)(C(=O)O)CC4)nc3)cc(COC)c2s1
Inquiry: # rank_down: sort by solubility at 24 h, max first API: response body holds the labels in the requested order.
Reply text: C, D, A, B

---

Test: physchem
Conditions: pH 9, aqueous buffer, kinetic from dmso stock, Solubility Range (maximum solubility)
Each entry below carries its reported solubility at 24 h.

Recorded solubility at 24 h, per entry:
CCNC(=O)Nc1nc2cc(-c3cnc(NC4COC(C)(C(=O)O)OC4)nc3)cc(-c3ccccn3)c2s1 (stereo not shown): 12.5 to 400 µg/mL
CCNC(=O)Nc1nc2cc(-c3cnc(N4CCC(C)(C(=O)O)CC4)nc3)cc(C#Cc3nnc(C)s3)c2s1: 400 to 800 µg/mL
CCCC1(C(=O)O)CCN(c2ncc(-c3cc(-c4cc(OC)ncn4)c4sc(NC(=O)NCC)nc4c3)cn2)CC1: > 800 µg/mL

Inquiry: Given the compound CCNC(=O)Nc1nc2cc(-c3cnc(N4CCC(C)(C(=O)O)CC4)nc3)cc(-c3cc(=O)n(C(C)C)cn3)c2s1 , what is its reported solubility at 24 h?
Reply text: 400 to 800 µg/mL

---

Target: Gyrase enzyme (A2B2 complex from Staphylococcus aureus) (UniProt P0A0K8)
Construct: 2 mU/μl Gyrase enzyme (A2B2 complex from Staphylococcus aureus); Alternatively
Test: Gyrase ATPase assay (S. aureus enzyme)
Type: biochemical
Settings: read-out: Gyrase ATPase activity (IC50); enzyme source (S. aureus or E. coli) not given; 1 mM ATP, 30° C., 60 minutes
parameter_measured: IC50 (nM)
The response must be a number in nM with no trailing unit.

Inquiry: Given the compound CCNC(=O)Nc1nc2cc(-c3nsc(N4CCC(CC)(C(=O)O)CC4)n3)cc(-c3ccccn3)c2s1 [Compound 232] , what is its reported IC50?
Reply text: 930

---

Experiment: physchem
Settings: pH 7.4, aqueous buffer, kinetic from dmso stock, Solubility Range
parameter_measured: solubility at 24 h

CCNC(=O)Nc1nc2cc(-c3cnc(N4CCC(Cc5ccccc5)(C(=O)OCC)CC4)nc3)cc(-c3ccccn3)c2s1: 12.5 to 400 µg/mL

Inquiry: Given the compound CCNC(=O)Nc1nc2cc(-c3cnc(N4CCC(CC)(C(=O)O)CC4)nc3)cc(-c3ccc(F)cc3)c2s1 , what is its reported solubility at 24 h?
Reply text: 400 to 800 µg/mL

Inquiry: Given the compound CCNC(=O)Nc1nc2cc(-c3cnc(N4CCC(C)(C(=O)O)CC4)nc3)cc(-c3cc(C)c(C#N)cn3)c2s1 , what is its reported solubility at 24 h?
Reply text: < 12.5 µg/mL

Inquiry: Given the compound CCCC1(C(=O)O)CCN(c2ncc(-c3cc(-c4ncnc5[nH]ccc45)c4sc(NC(=O)NCC)nc4c3)cn2)CC1 , what is its reported solubility at 24 h?
Reply text: 12.5 to 400 µg/mL

Inquiry: Given the compound CCNC(=O)Nc1nc2cc(-c3cnc(N4CCC(CC)(C(=O)O)CC4)nc3)cc(/C(C)=N/OC)c2s1 , what is its reported solubility at 24 h?
Reply text: > 800 µg/mL

Inquiry: Given the compound CCNC(=O)Nc1nc2cc(-c3cnc(N4CCC(CC)(C(=O)O)CC4)nc3)cc(-c3ccc(C#N)cn3)c2s1 , what is its reported solubility at 24 h?
Reply text: > 800 µg/mL

---

Test: physchem
Details: pH 7.4, aqueous buffer, kinetic from dmso stock, Solubility (pH 7.4)
parameter_measured: solubility at 24 h (µg/mL)

A = CCNC(=O)Nc1nc2cc(-c3cnc(NC4COC(C)(C(=O)O)OC4)nc3)cc(-c3ccccn3)c2s1 (stereo not shown) [Compound 196]
B = CCNC(=O)Nc1nc2cc(-c3cnc(N4CCC(C(=O)OCC)(S(C)(=O)=O)CC4)nc3)cc(-c3ccccn3)c2s1 [Compound 176]
Inquiry: Which has the smaller recorded solubility at 24 h, A or B ? Write down the label attached to your selection.
Reply text: A
(A: 50 µg/mL, B: 100 µg/mL)

I = CCNC(=O)Nc1nc2cc(-c3cnc(N4CCC(C)(C(=O)O)CC4)nc3)cc(-c3ccnc(C)n3)c2s1 [Compound 43]
II = CCNC(=O)Nc1nc2cc(-c3cnc(N4CCC(C)(C(=O)O)CC4)nc3)cc(-c3ccnc(OC)n3)c2s1 [Compound 42]
Inquiry: Which has the smaller recorded solubility at 24 h, I or II ? Write down the label attached to your selection.
Reply text: II
(II: 25 µg/mL, I: 400 µg/mL)

P = CCNC(=O)Nc1nc2cc(-c3cnc(N4CCC(C)(C(=O)O)CC4)nc3)cc(-c3ncc(F)cn3)c2s1 [Compound 34]
Q = CCNC(=O)Nc1nc2cc(-c3cnc(N4CCC(C)(C(=O)O)CC4)nc3)cc(Br)c2s1 [Compound 215]
Inquiry: Higher solubility at 24 h between P and Q ? Write down the label attached to your selection.
Reply text: Q

a = CCCC1(C(=O)O)CCN(c2ncc(-c3cc(-c4cc(OC)ncn4)c4sc(NC(=O)NCC)nc4c3)cn2)CC1 [Compound 121]
b = CCNC(=O)Nc1nc2cc(-c3cnc(N4CCC(C)(C(=O)O)CC4)nc3)cc(-c3cc(C)c(C#N)cn3)c2s1 [Compound 92]
c = CCNC(=O)Nc1nc2cc(-c3cnc(N4CCC(C)(C(=O)O)CC4)nc3)cc(-c3noc(C)n3)c2s1 [Compound 213]
d = CCNC(=O)Nc1nc2cc(-c3cnc(N4CCC(C#N)(C(=O)OCC)CC4)nc3)cc(-c3ccccn3)c2s1 [Compound 174]
Inquiry: # rank_down: sort by solubility at 24 h, max first API: response body holds the labels in the requested order.
Reply text: c, a, b, d

a = CCNC(=O)Nc1nc2cc(-c3cnc(N4CCC(C)(C(=O)O)CC4)nc3)cc(-c3cc(=O)n(CCOC)cn3)c2s1 [Compound 80]
b = CCNC(=O)Nc1nc2cc(-c3cnc(N4CCC(C)(C(=O)OCC)CC4)nc3)cc(-c3ccccn3)c2s1 [Compound 171]
c = CCNC(=O)Nc1nc2cc(-c3cnc(N4CCC(C)(C(=O)O)CC4)nc3)cc(-c3ccc(C#N)c(C)n3)c2s1 [Compound 58]
d = CCNC(=O)Nc1nc2cc(-c3cnc(N4CCC(C)(C(=O)O)CC4)nc3)cc(-c3cc(C)c(F)cn3)c2s1 [Compound 85]
Inquiry: Write the entries in order, lowest recorded solubility at 24 h first. API: response body holds the labels in the requested order.
Reply text: b, c, d, a
(b: 3.12 µg/mL, c: 25 µg/mL, d: 200 µg/mL, a: 400 µg/mL)

---

Assay: physchem
Conditions: pH 7.4, aqueous buffer, kinetic from dmso stock, Solubility Range
Each entry below carries its reported solubility at 24 h.

CCNC(=O)Nc1nc2cc(-c3cnc(N4CCC(C)(C(=O)O)CC4)nc3)cc(C#Cc3nccs3)c2s1: > 0.8 mg/mL

Inquiry: Given the compound CCNC(=O)Nc1nc2cc(-c3cnc(N4CCC(C(=O)O)(C(C)C)CC4)nc3)cc(-c3ccccn3)c2s1 , what is its reported solubility at 24 h?
Reply text: 0.4 to 0.8 mg/mL

Inquiry: Given the compound CCNC(=O)Nc1nc2cc(-c3cnc(N4CCC(C(=O)O)(C(F)(F)F)CC4)nc3)cc(-c3ccccn3)c2s1 , what is its reported solubility at 24 h?
Reply text: > 0.8 mg/mL

Inquiry: Given the compound CCNC(=O)Nc1nc2cc(-c3cnc(N4CCC(CC)(C(=O)O)CC4)nc3)cc(C(N)=O)c2s1 , what is its reported solubility at 24 h?
Reply text: > 0.8 mg/mL

Inquiry: Given the compound CCNC(=O)Nc1nc2cc(-c3cnc(N4CCC(O)(C(=O)O)CC4)nc3)cc(-c3ccccn3)c2s1 , what is its reported solubility at 24 h?
Reply text: 0.0125 to 0.4 mg/mL

Inquiry: Given the compound CCNC(=O)Nc1nc2cc(-c3cnc(N4CCC(CC)(C(=O)O)CC4)nc3)nc(-c3ccccn3)c2s1 , what is its reported solubility at 24 h?
Reply text: 0.0125 to 0.4 mg/mL

Inquiry: Given the compound CCNC(=O)Nc1nc2cc(-c3cnc(N4CCC(C)(C(=O)O)CC4)nc3)cc(C#Cc3cnccn3)c2s1 , what is its reported solubility at 24 h?
Reply text: > 0.8 mg/mL

Inquiry: Given the compound CCNC(=O)Nc1nc2cc(-c3csc(N4CCC(CC)(C(=O)O)CC4)n3)cc(-c3ccccn3)c2s1 , what is its reported solubility at 24 h?
Reply text: 0.0125 to 0.4 mg/mL

Inquiry: Given the compound CCNC(=O)Nc1nc2cc(-c3cnc(N4CCC(C)(C(=O)OC)CC4)nc3)cc(-c3ccccn3)c2s1 , what is its reported solubility at 24 h?
Reply text: < 0.0125 mg/mL

Inquiry: Given the compound CCNC(=O)Nc1nc2cc(-c3cnc(N4CCC(C)(C(=O)O)CC4)nc3)cc(-c3cnc(OC)cn3)c2s1 , what is its reported solubility at 24 h?
Reply text: > 0.8 mg/mL

Inquiry: Given the compound CCNC(=O)Nc1nc2cc(-c3cnc(N4CCC(C)(C(=O)O)CC4)nc3)cc(-c3nccc(OC)c3C#N)c2s1 , what is its reported solubility at 24 h?
Reply text: 0.0125 to 0.4 mg/mL

Inquiry: Given the compound CCNC(=O)Nc1nc2cc(-c3cnc(N4CCC(C)(C(=O)O)CC4)nc3)cc(-c3ccc(C)cn3)c2s1 , what is its reported solubility at 24 h?
Reply text: > 0.8 mg/mL
